These data points were gathered from the NIST ThermoML archive (doi:10.1016/j.fluid.2015.06.041).

# condition: 308.15 K; 101.33 kPa; Liquid; Vibrating tube method
reported_endpoint: mass density (kg/m3)

line_notation: NCCO
mass density, kg/m3: 1004.68
//
line_notation: NCCN
mass density, kg/m3: 885.63
//
line_notation: ClCCCl
mass density, kg/m3: 1231.21
//
line_notation: C1COCCO1
mass density, kg/m3: 1016.78

---

# condition: 318.15 K; 101.33 kPa; Liquid; Vibrating tube method
reported_endpoint: mass density (kg/m3)

molecule: ClCCCl [1,2-dichloroethane]
mass density (kg/m3): 1214.55

molecule: C1COCCO1 [1,4-dioxane]
mass density (kg/m3): 1005.24

molecule: NCCO [2-aminoethan-1-ol]
mass density (kg/m3): 998.15

molecule: NCCN [ethane-1,2-diamine]
mass density (kg/m3): 867.62

---

# condition: 308.15 K; 101.33 kPa; Liquid; Capillary tube (Ostwald / Ubbelohde) method
reported_endpoint: viscosity (mPa·s)

line_notation: NCCN
result_units: mPa·s
measured: 1.107
--
line_notation: NCCO
result_units: mPa·s
measured: 11.96

A. C1COCCO1
B. ClCCCl
// compare: A vs B , metric viscosity, want the smaller When you have decided, please share the label of that item.
B

---

# condition: 298.15 K; 101.33 kPa; Liquid; Vibrating tube method
reported_endpoint: mass density (kg/m3)

compound: NCCN [ethane-1,2-diamine]
mass density (kg/m3): 894.79
//
compound: C1COCCO1 [1,4-dioxane]
mass density (kg/m3): 1027.79
//
compound: NCCO [2-aminoethan-1-ol]
mass density (kg/m3): 1011.79
//
compound: ClCCCl [1,2-dichloroethane]
mass density (kg/m3): 1246.37
